- Test system: CCRIS mutagenicity, Ames/micronucleus/aberration tests
- assay info: CCRIS mutagenicity studies
- assay conditions: Test System: AMES SALMONELLA TYPHIMURIUM; Strain/Indicator: TA100; Metabolic Activation: MOUSE, LIVER, S-9, AROCLOR 1254; Method: STANDARD PLATE
The source made the active and inactive calls. The rule behind the calls is not given here.
Hello, when you answer, please use one of the following outcomes: label 1 = active, label 0 = inactive

Below are worked cases with known answers.
compound | class
c1ccc(NNc2ccccc2)cc1 | label 1
CC(Br)C(=O)N(C)Cc1ccccc1 (stereo not given) | label 0
CN(Cc1ccccc1)C(=O)CBr | label 0

Query: Which outcome was assigned to CC(Br)C(=O)Nc1ccccc1 (stereo not given) in this test?
Result: label 1

Query: Which outcome was assigned to CC(Br)C(=O)NCc1ccccc1 (stereo not given) in this test?
Result: label 1

* * *

- Tested on: CCRIS mutagenicity, Ames/micronucleus/aberration tests
- assay info: CCRIS mutagenicity studies
- assay conditions: Test System: AMES SALMONELLA TYPHIMURIUM; Strain/Indicator: TA1535; Metabolic Activation: NONE; Method: STANDARD PLATE
Active and inactive are the calls of the source. No rule for the calls is given here.
Hello, when you answer, please use one of the following outcomes: 1.0 for active, 0.0 for inactive

compound | target under test | class
C=CCc1ccc(O)c(O)c1 | CCRIS mutagenicity, Ames/micronucleus/aberration tests | 0.0
ClCCNCCCNc1c2ccccc2nc2ccccc12 | CCRIS mutagenicity, Ames/micronucleus/aberration tests | 1.0
C=C(C)C(=O)OCCCC | CCRIS mutagenicity, Ames/micronucleus/aberration tests | 0.0
CN1CCC(=C2c3ccccc3C=Cc3ccccc32)CC1 | CCRIS mutagenicity, Ames/micronucleus/aberration tests | 0.0
CC(=O)N(C)N=O | CCRIS mutagenicity, Ames/micronucleus/aberration tests | 1.0
O=c1[nH][nH]c2ccccc12 | CCRIS mutagenicity, Ames/micronucleus/aberration tests | 0.0

Query: Which outcome was assigned to O=C(CCl)Nc1snc2ccccc12 in this test?
Result: 0.0

Query: Which outcome was assigned to CCOC(=O)C1C(C=C(C)C)C1(C)C (stereo not drawn) in this test?
Result: 0.0

* * *

- Test system: CCRIS mutagenicity, Ames/micronucleus/aberration tests
- assay info: CCRIS mutagenicity studies
- assay conditions: Test System: AMES SALMONELLA TYPHIMURIUM; Strain/Indicator: TA1535; Metabolic Activation: HAMSTER, LIVER, S-9, AROCLOR 1254; Method: PREINCUBATION
Calls of active or inactive are those of the source. How the calls were made is not given here.
Hello, when you answer, please use one of the following outcomes: active, inactive

Below are worked cases with known answers.
smiles repr | class
Nc1ccc(N)c2c1C(=O)c1c(N)ccc(N)c1C2=O | active
Brc1c(Br)c(Br)c(Br)c(Br)c1Br | inactive
C=C(C)[C@H]1CC=C(C)CC1 | inactive
ClC(Cl)(Cl)C(Cl)(Cl)Cl | inactive
C(=C/c1ccccc1)/c1ccccc1 | inactive

Query: Which outcome was assigned to C[C@](N)(Cc1ccc(O)c(O)c1)C(=O)O in this test?
Result: inactive

Query: Which outcome was assigned to Nc1nc(N)nc(N)n1 in this test?
Result: inactive

* * *

- Test system: CCRIS mutagenicity, Ames/micronucleus/aberration tests
- assay info: CCRIS mutagenicity studies
- assay conditions: Test System: CHINESE HAMSTER OVARY; Strain/Indicator: CHO-K1-BH4 (HGPRT)/6-THIOGUANINE; Metabolic Activation: NONE
- Excerpt: The CCRIS database contains chemical records with carcinogenicity, mutagenicity, tumor promotion, and tumor inhibition test results. It was developed by the National Cancer Institute (NCI). Data are derived from studies cited in primary journals, current awareness tools, NCI reports, and other sources. Test results have been reviewed by experts in carcinogenesis and mutagenesis. CCRIS provides historical information from the years 1985 - 2011. It is no longer updated. […]
Active and inactive are the calls of the source. No rule for the calls is given here.
Hello, when you answer, please use one of the following outcomes: active, inactive

Below are worked cases with known answers.
compound | target under test | class
CCCCC(CC)COC(=O)c1ccc(C(=O)OCC(CC)CCCC)cc1 (configuration not stated) | CCRIS mutagenicity, Ames/micronucleus/aberration tests | inactive
CCCCOCCOCCOCc1cc2c(cc1CCC)OCO2 | CCRIS mutagenicity, Ames/micronucleus/aberration tests | inactive
CCOP(=S)(OCC)Oc1nc(Cl)c(Cl)cc1Cl | CCRIS mutagenicity, Ames/micronucleus/aberration tests | inactive
Nc1ccc([N+](=O)[O-])cc1N | CCRIS mutagenicity, Ames/micronucleus/aberration tests | inactive

Query: Which outcome was assigned to Nc1ccccc1C(=O)O in this test?
Result: inactive

Query: Which outcome was assigned to CCOCCc1c(-c2ccccc2)nc(N)n2ncnc12 in this test?
Result: inactive

Query: Which outcome was assigned to COCC(=O)O in this test?
Result: inactive

Query: Which outcome was assigned to COP(=O)(OC)OC=C(Cl)Cl in this test?
Result: active

Query: Which outcome was assigned to C=CC1CC2C=CC1C2 (configuration not stated) in this test?
Result: inactive

* * *

- Tested on: CCRIS mutagenicity, Ames/micronucleus/aberration tests
- assay info: CCRIS mutagenicity studies
- assay conditions: Test System: MOUSE LYMPHOMA; Strain/Indicator: L5178Y (TK+/TK-); Metabolic Activation: S-9; Method: MICROWELL
- Source text: The CCRIS database contains chemical records with carcinogenicity, mutagenicity, tumor promotion, and tumor inhibition test results. It was developed by the National Cancer Institute (NCI). Data are derived from studies cited in primary journals, current awareness tools, NCI reports, and other sources. Test results have been reviewed by experts in carcinogenesis and mutagenesis. CCRIS provides historical information from the years 1985 - 2011. It is no longer updated. […]
Calls of active or inactive are those of the source. No rule for the calls is given here.
Hello, when you answer, please use one of the following outcomes: active, inactive

smiles repr | class
ClC(Cl)C(Cl)(Cl)Cl | inactive
O=c1[nH]cc(F)c(=O)[nH]1 | active
Nc1ccn([C@H]2CC[C@@H](CO)O2)c(=O)n1 | inactive
C[C@H]1C(=O)O[C@@H]2CCN3CC=C(COC(=O)[C@](C)(O)[C@]1(C)O)[C@H]23 | active
COC1=CC(=O)C[C@@H](C)[C@]12Oc1c(Cl)c(OC)cc(OC)c1C2=O | active

For the next question, use this compound.
Query: Which outcome was assigned to CN(Cc1cnc2nc(N)nc(N)c2n1)c1ccc(C(=O)N[C@@H](CCC(=O)O)C(=O)O)cc1 in this test?
Result: active

* * *

- System: CCRIS mutagenicity, Ames/micronucleus/aberration tests
- assay info: CCRIS mutagenicity studies
- assay conditions: Test System: E. COLI; Strain/Indicator: WP2 (HCR); Metabolic Activation: NONE; Method: STANDARD PLATE
Activity calls are given as the source filed them. No rule for the calls is given here.
measured parameter: mutagenic call

Some solved entries appear below for comparison.
smiles repr | target under test | mutagenic call
CC[C@@]1(O)C[C@H](O[C@H]2C[C@H](N(C)C)[C@H](O[C@H]3C[C@H](O)[C@H](O[C@H]4CCC(=O)[C@H](C)O4)[C@H](C)O3)[C@H](C)O2)c2c(cc3c(c2O)C(=O)c2c(O)cccc2C3=O)[C@H]1C(=O)OC | CCRIS mutagenicity, Ames/micronucleus/aberration tests | inactive; negative
O=c1[nH]cc(F)c(=O)[nH]1 | CCRIS mutagenicity, Ames/micronucleus/aberration tests | inactive; negative
CN[C@H]1CCc2cc(OC)c(OC)c(OC)c2-c2ccc(OC)c(=O)cc21 | CCRIS mutagenicity, Ames/micronucleus/aberration tests | inactive; negative
CS(=O)(=O)OCCCCOS(C)(=O)=O | CCRIS mutagenicity, Ames/micronucleus/aberration tests | inactive; negative
CN(Cc1cnc2nc(N)nc(N)c2n1)c1ccc(C(=O)N[C@@H](CCC(=O)O)C(=O)O)cc1 | CCRIS mutagenicity, Ames/micronucleus/aberration tests | inactive; negative
C[C@@H]1C[C@@]2(C)[C@@H](CC[C@@H]3[C@@H]2CC[C@]2(C)[C@@H](O)CC[C@@H]32)CC1=O | CCRIS mutagenicity, Ames/micronucleus/aberration tests | inactive; negative

Query: Kindly indicate its recorded mutagenic call. Item: CO[C@@H]1[C@H](O)C[C@@H](O[C@@H]2C[C@H](Oc3cc4cc5c(c(O)c4c(O)c3C)C(=O)[C@@H](O[C@H]3C[C@@H](O[C@H]4C[C@@H](O[C@H]6C[C@](C)(O)[C@@H](OC(C)=O)[C@H](C)O6)[C@H](O)[C@@H](C)O4)[C@H](O)[C@@H](C)O3)[C@H]([C@H](OC)C(=O)[C@@H](O)[C@@H](C)O)C5)O[C@H](C)[C@@H]2OC(C)=O)O[C@@H]1C
Result: inactive; negative

* * *

- Test system: CCRIS mutagenicity, Ames/micronucleus/aberration tests
- assay info: CCRIS mutagenicity studies
- assay conditions: Test System: AMES SALMONELLA TYPHIMURIUM; Strain/Indicator: TA98(1,8-DNP6); Metabolic Activation: RAT, LIVER, S-9; Method: STANDARD PLATE
- Source text: The CCRIS database contains chemical records with carcinogenicity, mutagenicity, tumor promotion, and tumor inhibition test results. It was developed by the National Cancer Institute (NCI). Data are derived from studies cited in primary journals, current awareness tools, NCI reports, and other sources. Test results have been reviewed by experts in carcinogenesis and mutagenesis. CCRIS provides historical information from the years 1985 - 2011. It is no longer updated. […]
Calls of active or inactive are those of the source. The rule behind the calls is not given here.

smiles repr | target under test | mutagenic call
CC(=O)Nc1nc2c3cccnc3ccc2n1C | CCRIS mutagenicity, Ames/micronucleus/aberration tests | inactive; negative
CN(C)CCCNc1c2ccccc2nc2ccccc12 | CCRIS mutagenicity, Ames/micronucleus/aberration tests | inactive; negative
Cn1c(N)nc2c3cccnc3ccc21 | CCRIS mutagenicity, Ames/micronucleus/aberration tests | inactive; negative
